Catalogue of inhibition at 110 µM values
tested on: C. elegans; experiment: microbe, parasite or virus in culture; conditions: Caenorhabditis elegans, 24 h, read-out: Percentage of motility inhibition 24 h, Table S2, C. elegans SS assay, 110 μM, 24 h, averages of 4 data points
The figure you give is taken to be in %; do not add the unit.

The examples below pair each entry with its known result.
molecule: COc1ccc(C(=O)O[C@H]2CC[C@@]3(C)[C@@H]4CC[C@H]5[C@]6(O)C[C@H](O)[C@@]7(O)[C@@H](CN8C[C@@H](C)CC[C@H]8[C@@]7(C)O)[C@]6(O)C[C@@]53O[C@]24O)cc1OC [Veratridine]
assay_target: C. elegans
endpoint_result: 0

molecule: CSCCC(N)C(=O)O (racemic) [DL-Methionine]
assay_target: C. elegans
endpoint_result: 2

molecule: CCCCC1C(=O)N(c2ccccc2)N(c2ccc(O)cc2)C1=O (stereo not shown) [Oxyphenbutazone]
assay_target: C. elegans
endpoint_result: 0

molecule: CC(=O)O[C@@H]1C[C@H](O)[C@@]23CO[C@@H](O)[C@]1(C)[C@@H]2C[C@@H](O)[C@]1(C)[C@@H]3C(=O)[C@H](OC(C)=O)[C@@]2(C)[C@H](c3ccoc3)C[C@H]3O[C@]321 [Toosendanin]
assay_target: C. elegans
endpoint_result: 7

molecule: C=CCCCCCCCCC(=O)O [10‐Undecenoic acid]
assay_target: C. elegans
endpoint_result: 67

molecule: N[C@@H](Cc1c[nH]c2ccc(O)cc12)C(=O)O [5-Hydroxytryptophan]
assay_target: C. elegans
endpoint_result: 12

Now look at this entry.
Given the molecule O=C(CCCCc1ccc2c(c1)OCO2)N1CCCCC1 [Tetrahydropiperine] and test system C. elegans, the measured inhibition at 110 µM is 0
